B1: library; numbered along this chain (parent)
chain: MAAAAAAAAEQQSSNGPVKKSMREKAVERRSVNKEHNSNFKAGYIPIDEDRLHKTGLRGRKGNLAICVIILLFILAVINLIITLVIWAVIRIGPNGCDSMEFHESGLLRFKQVSDMGVIHPLYKSTVGGRRNENLVITGNNQPIVFQQGTTKLSVENNKTSITSDIGMQFFDPRTQNILFSTDYETHEFHLPSGVKSLNVQKASTERITSNATSDLNIKVDGRAIVRGNEGVFIMGKTIEFHMGGNMELKAENSIILNGSVMVSTTRLPSSSSGDQLGSGDWVRYKLCMCADGTLFKVQVTSQNMGCQISDNPCGNTH

Variants of: B1
Assay: SGCB cell-surface expression functional score (HA stain, bin4 vs bin1, normalised to synonymous) (log10 ratio); higher = more cell-surface SGCB (functional)
The entries below come with measured SGCB cell-surface expression functional score (log10) values attached.
Give only the figure.

{"columns": ["variant_string", "observed_result"],
 "data": [
  ["L295C", -0.2],
  ["A88Q", 0.15],
  ["P313K", -0.22],
  ["N253R", 0.29],
  ["V300K", -2.02]
]}

Please fill in: SGCB cell-surface expression functional score (log10) reported for G16N = 0.14

Please fill in: SGCB cell-surface expression functional score (log10) reported for V261D = 0.41

Please fill in: SGCB cell-surface expression functional score (log10) reported for E10Q = 0.15

Please fill in: SGCB cell-surface expression functional score (log10) reported for G306S = -0.32

Please fill in: SGCB cell-surface expression functional score (log10) reported for V263L = 0.09
